Reference source: ChEMBL document CHEMBL3421548

testDescription: Cytotoxicity against mouse NIH/3T3 cells after 48 hrs by SRB method
Format: cell-based
conditions: NIH3T3, 48 h
valueType: IC50

>>> result("C=CCOc1ccc(-c2nc3ccccc3c3c2[nH]c2ccccc23)cc1")
"> 200 µM"
>>> result("c1ccc2nc(-c3nc4ccccc4c4c3[nH]c3ccccc34)ccc2c1")
"> 200 µM"
>>> result("Brc1ccc(-c2nc3ccccc3c3c2[nH]c2ccccc23)cc1")
"> 200 µM"
